The origin of these recorded values is ChEMBL document CHEMBL4513216.

- Test system: Plasmodium berghei
- test_summary: Screen against P. berghei liver stage (PbLuc), transformed with Luciferase, at 2uM
- Assay type: functional, HepG2
- test_parameters: tested at 2 uM
About 2,700 (4%) of roughly 68,000 compounds showed an effect of 50% or more. This is one part of a sample in which strong results are shown more often than they occur.
Response field label takes criterion met when INHIBITION is strictly below 40% and criterion not met in all other cases.

molecule | target_under_test | answer_label
CC(C(=O)N1CCC(Nc2cccnn2)CC1)n1cccn1 (centres undefined) | Plasmodium berghei | criterion met
CCn1c(C)cc(C(=O)N2CCC(Nc3ccc(C)nn3)CC2)c1C | Plasmodium berghei | criterion met
CC(=O)N1CC(C)CN(C(=O)c2cccnc2C)c2ccccc21 (centres undefined) | Plasmodium berghei | criterion met
CNC(=O)COc1cccc(CNC(=O)c2c(C)noc2C(C)C)c1 | Plasmodium berghei | criterion not met
Cn1ccnc1CCNS(=O)(=O)c1ccc(Br)cc1 | Plasmodium berghei | criterion met
COc1cc(C2c3c(n[nH]c3C)N=C3COC(=O)C32)cc(Br)c1O (centres undefined) | Plasmodium berghei | criterion met
Cc1noc(C)c1C(=O)NCC(c1ccsc1)N(C)C (centres undefined) | Plasmodium berghei | criterion met
CCCN(CC(=O)NC)C(=O)c1ccc(-c2nc(C)cs2)cc1 | Plasmodium berghei | criterion not met
CCc1ccccc1CN1CCn2nc(CNC(C)=O)cc2C1 | Plasmodium berghei | criterion met
CCCN(CC(=O)N(C)C)C(=O)c1ccc(-c2nc(C)cs2)cc1 | Plasmodium berghei | criterion met
CN(Cc1ccccc1)C1(C(=O)NC(CO)CO)Cc2ccccc2C1 | Plasmodium berghei | criterion met
N#CCCN(c1ccccc1)S(=O)(=O)CC1CCCCO1 (centres undefined) | Plasmodium berghei | criterion met
Cc1ccc(NC2CCN(C(=O)c3cccnc3O)CC2)nn1 | Plasmodium berghei | criterion met
CCn1c(C)cc(C(=O)N2CCC(Nc3cccnn3)CC2)c1C | Plasmodium berghei | criterion not met
COCc1cccc(CNC(=O)c2c(C)noc2C(C)C)c1 | Plasmodium berghei | criterion not met
CCNCc1ccc(OCc2ccc3c(c2)OCCO3)cc1 | Plasmodium berghei | criterion met
CNC(=O)COc1cccc(CNC(=O)c2c(C)noc2C)c1 | Plasmodium berghei | criterion met
O=C(c1ccc2[nH]c(=O)[nH]c2c1)N1CCC(Nc2cccnn2)CC1 | Plasmodium berghei | criterion not met
CSCC[C@H](N)c1nnc(SCc2cc(C)ccc2C)o1 | Plasmodium berghei | criterion met
O=C(c1ccc(NC2CC2)nc1)N1CCC(Nc2cccnn2)CC1 | Plasmodium berghei | criterion met
O=C(c1ccc2[nH]nnc2c1)N1CCC(Nc2cccnn2)CC1 | Plasmodium berghei | criterion met
O=C(c1cccc(Cl)c1)N1CC[C@H]2[C@H]1CCN2CC1CCOCC1 | Plasmodium berghei | criterion not met
CC(C(=O)N1CCC(Nc2cccnn2)CC1)n1ccnc1 (centres undefined) | Plasmodium berghei | criterion met

* * *

- Tested on: Plasmodium berghei
- test_summary: Screen against P. berghei liver stage (PbLuc), transformed with Luciferase, at 2uM
- Assay type: functional, HepG2
- test_parameters: tested at 2 uM
The whole screen tested about 68,000 compounds, of which about 2,700 (4%) showed an effect of 50% or more. Many of the other results were omitted from the sample, so strong results are more common in it than they were.
Parameter: INHIBITION. Scope: all listed entries.
measurement_name: INHIBITION (%)

compound | target_under_test | unit_descriptor | reported_measurement
CC(C)CN(C)Cc1c[nH]nc1-c1ccc(F)cc1F | Plasmodium berghei | % | -22.69
CC(C)CS(=O)(=O)CCNC(=O)Nc1cccc2ncccc12 | Plasmodium berghei | % | -41.73
O=C(Cn1cc(C(=O)O)ccc1=O)NCc1ccc(F)cc1Cl | Plasmodium berghei | % | 9.27
Cc1cnccc1CN(C)Cc1c[nH]nc1-c1ccc(F)cc1F | Plasmodium berghei | % | 51.39
O=C(Cn1cc(C(=O)O)ccc1=O)Nc1ccc(Cl)cc1F | Plasmodium berghei | % | 33.23
COCCOCC(=O)Nc1ccc(F)cc1C | Plasmodium berghei | % | 52.74
CCOCC1c2c(cnn2CC2CC2)CCN1Cc1nccs1 (configuration not stated) | Plasmodium berghei | % | 26.64
COc1nn(C)cc1C(=O)NCC(OC)c1ccccc1C (configuration not stated) | Plasmodium berghei | % | 24.09
CN(C)C(=O)CNC(=O)c1cc2ccccc2nc1N1CCCC1 | Plasmodium berghei | % | 8.74
O=C(c1cccc(S(=O)(=O)NCCc2ccccn2)c1)N1CCOCC1 | Plasmodium berghei | % | 6.84
COCCOCC(=O)Nc1ccc(C)cc1F | Plasmodium berghei | % | 11.28
Cc1cc(F)ccc1NC(=O)Cn1cc(C(=O)O)ccc1=O | Plasmodium berghei | % | 55.39

* * *

- Test system: Plasmodium berghei
- test_summary: Screen against P. berghei liver stage (PbLuc), transformed with Luciferase, at 2uM
- Format: functional, HepG2
- test_parameters: tested at 2 uM
Among all 68,000 compounds or so, about 2,700 (4%) showed an effect of 50% or more. This excerpt belongs to a sample that is enriched for strong results.
Response field label takes 1 when INHIBITION is strictly below 30% and -1 in all other cases.

compound | answer_label
CCCS(=O)(=O)N1CCC(Nc2c(F)cc(C#N)cc2F)CC1 | 1
Cc1ccc(-c2cc(CS(=O)(=O)NC3CCCNC3=O)on2)cc1 (stereo unspecified) | -1
CN(C)c1ccc(CNCc2cnc(N3CCOCC3)nc2)cn1 | 1
Cn1c(CN2CCCC2)nnc1C1CCCN(C(=O)C2CCOCC2)C1 (stereo unspecified) | 1
COc1ccccc1OC1(C(=O)O)CCN(c2nc(C)cnc2C)CC1 | -1
Cc1oc(C(=O)O)cc1S(=O)(=O)Nc1cccc(-n2nccc2C)c1 | -1
CCS(=O)(=O)N1CCC(Nc2c(F)cc(C#N)cc2F)CC1 | -1
O=C(c1ccco1)N1Cc2cnn(CC3CC3)c2C(COCC2CC2)C1 (stereo unspecified) | 1
O=C1NCCCCC1NC(=O)C1(c2ccccc2)CCOCC1 (stereo unspecified) | 1
Cc1cc(CN2C[C@@H]3CN(C(=O)c4cccn4C)CCO[C@@H]3C2)no1 | 1
CCC1CN(C(=O)c2csc3nc(-c4ccc(Cl)cc4)cn23)CCN1 (stereo unspecified) | 1
COc1cccn(Cc2nnc(-c3cccc(F)c3)o2)c1=O | 1
O=C(c1cscn1)N1C[C@H]2CCCC(OCc3cccnc3)[C@H]2C1 (stereo partly specified) | 1
COCCN1CCC2(CC1)CN(CCn1cccn1)C(=O)CO2 | 1
CC(C)CNC(=O)c1cccc(CN2CCc3c(ncn3C)C2)c1 | 1
CC(C)c1nc(C2CCCN2C(=O)CCn2cncn2)no1 (stereo unspecified) | 1
CC(C)c1nc(C2CCCN(C(=O)CCn3cncn3)C2)no1 (stereo unspecified) | -1
Cc1ccc(-c2cc(CNC(=O)N3CCC(O)CC3)on2)cc1 | 1
COc1cc(N2C[C@@H]3COC[C@]3(COCc3cccc(C)n3)C2)ncn1 | 1
CCN(CCc1nc2cc(C)ccc2[nH]1)C(=O)[C@@H](N)Cc1c[nH]cn1 | 1
CC(C)OCCSCc1nnc(-c2cccc(F)c2)o1 | -1
CN(C)C(=O)c1cccc(CN2CCOC(Cn3cncn3)C2)c1 (stereo unspecified) | -1
Fc1ccc(-c2nnc(CN3CCOC(Cn4cncn4)C3)o2)cc1 (stereo unspecified) | 1
CC(C)[C@@H](CO)Nc1cc(-c2cn[nH]c2)ncn1 | 1
CC(C)(C)c1nnc(CN2CCOC(Cn3cncn3)C2)o1 (stereo unspecified) | -1
Cc1ncnc2c1CCN(Cc1ccc3c(c1)OCO3)CC2 | 1
CCOC(=O)N1CCN(c2nc(NCCCO)c3ccccc3n2)CC1 | 1
CC(C)(C)c1nnc(CN2CCCC(Cn3cncn3)C2)o1 (stereo unspecified) | 1
CC(C)c1nc(C2CCCN(C(=O)CCCn3cncn3)C2)no1 (stereo unspecified) | 1
O=C(CC[C@@H]1CCCN2CCCC[C@H]12)NCCc1nc(O)cc(O)n1 | -1
O=C(NCc1cc(-c2ccccc2)no1)NCC1CCCO1 (stereo unspecified) | 1
O=C(CC[C@@H]1CCCN2CCCC[C@H]12)NCCc1cc(O)ncn1 | 1
Cc1cnn(CC2CN(Cc3cccc(C(=O)N(C)C)c3)CCO2)c1 (stereo unspecified) | 1
Cc1nc[nH]c1CNCc1cccnc1N(C)C1CCCCC1 | 1
Cn1cnc2c1CCN(Cc1cccc(C(N)=O)c1)C2 | -1
Nc1cc(O)nc(CCNC(=O)CC[C@@H]2CCCN3CCCC[C@H]23)n1 | 1
CSc1ccc(C(=O)C2CCCN(C(=O)CCn3cncn3)C2)cc1 (stereo unspecified) | -1
Cc1cc(CNc2ccc3nc(C)sc3c2)no1 | 1
COC(=O)[C@H](C)NC(=O)c1cc(-c2cccc(Cl)c2)no1 | 1
c1cc(CN2C[C@@H]3OCCN(CCN4CCCC4)[C@@H]3C2)co1 | 1
NC(=O)c1cccc(CN2CCc3c(ncn3C3CC3)C2)c1 | 1
Cc1cc(C)c(CNC(=O)NCC2Cc3ccccc32)c(=O)[nH]1 (stereo unspecified) | -1
CN(C)C(=O)c1cccc(CN2CCOC(Cn3cccn3)C2)c1 (stereo unspecified) | 1
COc1ccccc1OC1(C(=O)O)CCN(c2ncnc(C)c2C)CC1 | -1
CSCC(=O)N1CCCC(CCC(=O)N(C)CCc2ccccn2)C1 (stereo unspecified) | 1
Cc1cn2c(=O)c(-c3ccnc(N(C)C4CCCCC4)n3)cnc2s1 | 1
